Cited source for all entries: patent US12258342B2

# Assayed Target: E. coli DNA gyrase (Escherichia coli (strain K12))
# Protocol Details: DNA gyrase inhibition assay (Inspiralis, streptavidin-coated plates)
The entries below come with measured IC50 values attached.

// worked examples, IC50 included
Smiles Input	Result
Cc1[nH]c(C(=O)Nc2nc3c(O)cc(C(=O)O)cc3s2)c(Cl)c1Cl	< 5 nM
O=C(O)CCNC(=O)c1ccc2nc(NC(=O)c3cc(Br)c(Br)[nH]3)sc2c1	12 nM

If you can, please state the reported IC50 value of `Cc1[nH]c(C(=O)Nc2nc3c(N4CC[C@H](NC(=O)OC(C)(C)C)C4)cc(C(=O)O)cc3s2)c(Cl)c1Cl` .
< 5 nM

Same lookup for `Cc1[nH]c(C(=O)Nc2nc3c(OCCN4CCOCC4)cc(C(=O)O)cc3s2)c(Cl)c1Cl.Cl` , please.
< 5 nM
